System: Reis
method: Herbicidal action, pre-emergent application (greenhouse)
Format: in vivo
Parameters: key: 1 Pflanze abgestorben; 2-4 schwere Schädigung; 3: 2-4 schwere Schädigung; 2-4 schwere Schädigung; 5, 6 mittlere Schäden; 5, 6 mittlere Schäden; 7, 8 leichte Schäden; 7, 8 leichte Schäden; 9 Pflanze gedeiht normal, wie unbehandelte Kontrollpflanze
runConditions: Aufwandmenge 4 kg/ha, after 3 weeks
observationType: Zustand der Pflanzen (EWRC Bewertungsschema)
Respond numerically, and do not add a unit to the figure.

Sample records with Zustand der Pflanzen (EWRC Bewertungsschema):
[[record]]
molecule = "CCOC(=O)CCC(C)Oc1cc(Oc2ccc(C(F)(F)F)cc2Cl)ccc1Cl (stereo not drawn)"
experimentalvalue = 9

[[record]]
molecule = "CCNC(=O)CCC(C)Oc1cc(Oc2ccc(C(F)(F)F)cc2Cl)ccc1Cl (stereo not drawn)"
experimentalvalue = 8

[[record]]
molecule = "CCOC(=O)C=CC(C)Oc1cc(Oc2ccc(C(F)(F)F)cc2Br)ccc1Cl (stereo not drawn)"
experimentalvalue = 9


-- ask What measured Zustand der Pflanzen (EWRC Bewertungsschema) is associated with CC(CCC(=O)O)Oc1cc(Oc2ccc(C(F)(F)F)cc2Cl)ccc1Cl (stereo not drawn) on Reis?
-- reply 8

-- ask What measured Zustand der Pflanzen (EWRC Bewertungsschema) is associated with CCOC(=O)CCC(C)Oc1cc(Oc2ccc(C(F)(F)F)cc2Br)ccc1Cl (stereo not drawn) on Reis?
-- reply 9

-- ask What measured Zustand der Pflanzen (EWRC Bewertungsschema) is associated with COC(=O)CC(=O)C(C)Oc1cc(Oc2ccc(C(F)(F)F)cc2Cl)ccc1Cl (stereo not drawn) on Reis?
-- reply 6

====

Test system: sinapis alba
method: Herbicidal action, pre-emergent application (greenhouse)
Format: in vivo
Design: key: 1 Pflanze abgestorben; 2-4 schwere Schädigung; 3: 2-4 schwere Schädigung; 2-4 schwere Schädigung; 5, 6 mittlere Schäden; 5, 6 mittlere Schäden; 7, 8 leichte Schäden; 7, 8 leichte Schäden; 9 Pflanze gedeiht normal, wie unbehandelte Kontrollpflanze
runConditions: Aufwandmenge 2 kg/ha, after 3 weeks
observationType: Zustand der Pflanzen (EWRC Bewertungsschema)
Respond numerically, and do not add a unit to the figure.

Sample records with Zustand der Pflanzen (EWRC Bewertungsschema):
[[record]]
compound = "CC(CCC(=O)O)Oc1cc(Oc2ccc(C(F)(F)F)cc2Cl)ccc1Cl (stereo not drawn)"
systemundertest = "sinapis alba"
experimentalvalue = 1

[[record]]
compound = "CCOC(=O)CCC(C)Oc1cc(Oc2ccc(C(F)(F)F)cc2Cl)ccc1Cl (stereo not drawn)"
systemundertest = "sinapis alba"
experimentalvalue = 1

[[record]]
compound = "CCOC(=O)CCC(C)Oc1cc(Oc2ccc(C(F)(F)F)cc2Br)ccc1Cl (stereo not drawn)"
systemundertest = "sinapis alba"
experimentalvalue = 1

[[record]]
compound = "CCOC(=O)C=CC(C)Oc1cc(Oc2ccc(C(F)(F)F)cc2Br)ccc1Cl (stereo not drawn)"
systemundertest = "sinapis alba"
experimentalvalue = 4

[[record]]
compound = "COC(=O)CC(=O)C(C)Oc1cc(Oc2ccc(C(F)(F)F)cc2Cl)ccc1Cl (stereo not drawn)"
systemundertest = "sinapis alba"
experimentalvalue = 2


// below: Zustand der Pflanzen (EWRC Bewertungsschema) requested for another compound
-- ask Name the recorded Zustand der Pflanzen (EWRC Bewertungsschema) for CCNC(=O)CCC(C)Oc1cc(Oc2ccc(C(F)(F)F)cc2Cl)ccc1Cl (stereo not drawn) .
-- reply 1

====

Tested on: abutilon sp
method: Herbicidal action, pre-emergent application (greenhouse)
Assay type: in vivo
Parameters: key: 1 Pflanze abgestorben; 2-4 schwere Schädigung; 3: 2-4 schwere Schädigung; 2-4 schwere Schädigung; 5, 6 mittlere Schäden; 5, 6 mittlere Schäden; 7, 8 leichte Schäden; 7, 8 leichte Schäden; 9 Pflanze gedeiht normal, wie unbehandelte Kontrollpflanze
runConditions: Aufwandmenge 2 kg/ha, after 3 weeks
Listing of entries alongside the reported Zustand der Pflanzen (EWRC Bewertungsschema).
Respond numerically, and do not add a unit to the figure.

Sample records with Zustand der Pflanzen (EWRC Bewertungsschema):
[[record]]
compound = "CCNC(=O)CCC(C)Oc1cc(Oc2ccc(C(F)(F)F)cc2Cl)ccc1Cl (stereo not drawn)"
experimentalvalue = 1

[[record]]
compound = "COC(=O)CC(=O)C(C)Oc1cc(Oc2ccc(C(F)(F)F)cc2Cl)ccc1Cl (stereo not drawn)"
experimentalvalue = 6

[[record]]
compound = "CC(CCC(=O)O)Oc1cc(Oc2ccc(C(F)(F)F)cc2Cl)ccc1Cl (stereo not drawn)"
experimentalvalue = 2

[[record]]
compound = "CCOC(=O)CCC(C)Oc1cc(Oc2ccc(C(F)(F)F)cc2Cl)ccc1Cl (stereo not drawn)"
experimentalvalue = 5

[[record]]
compound = "CCOC(=O)C=CC(C)Oc1cc(Oc2ccc(C(F)(F)F)cc2Br)ccc1Cl (stereo not drawn)"
experimentalvalue = 6


-- ask Name the recorded Zustand der Pflanzen (EWRC Bewertungsschema) for CCOC(=O)CCC(C)Oc1cc(Oc2ccc(C(F)(F)F)cc2Br)ccc1Cl (stereo not drawn) .
-- reply 5

Values were extracted from patent EP0034120A1.
